biological target: recombinant HA1 domain (D18-R344), A/California/06/2009 (H1N1)pdm09 (Influenza A virus A/California/06/2009 …, UniProt C3W5S1, strain); test: SPR; conditions: both partners purified
Measured Kd, listed per entry.

[
  {
    "binder": "R2a-G9 (VHH, source: E. coli WK6 periplasm, purified (Talon IMAC, Superdex 75 SEC)) VHH: QVQLVESGGGLVQPGGSLRLSCAASDNIFSFYTMGWYRQSPGKERELVAVIGNGGNTNYADSVKGRFTISRDNGKNKAHLQMNSLKPEDTAVYYCKASGPGGVEVWGQGTQVTVSS",
    "Kd / nM": 68.7
  },
  {
    "binder": "R1a-F5 (VHH, source: E. coli WK6 periplasm, purified (Talon IMAC, Superdex 75 SEC)) VHH: QLQLVESGGGLVQVGGSLRLSCAASGFPFDGYAIAWFRQAPGKEREGVSCRASDGNTYYAESLKGRLTMSTDNAKNTVYLQMNSLKPEDTAVYYCAAASWVASLWSPSEYDYWGQGTQVTVSS",
    "Kd / nM": 6.06
  },
  {
    "binder": "R1a-E6 (VHH, source: E. coli WK6 periplasm, purified (Talon IMAC, Superdex 75 SEC)) VHH: QVQLVESGGGLVQPGGSLRLSCAASGFTLGAYAIAWFRQAPGKEREGVSCISPSDSFTEYGDSVKGRFTVSRDNAKNTVYLQMNSLQPEDTAVYYCAADPVCTAGWYRPSRFDLWGQGTQVTVSS",
    "Kd / nM": 36
  },
  {
    "binder": "R1a-C5 (VHH, source: E. coli WK6 periplasm, purified (Talon IMAC, Superdex 75 SEC)) VHH: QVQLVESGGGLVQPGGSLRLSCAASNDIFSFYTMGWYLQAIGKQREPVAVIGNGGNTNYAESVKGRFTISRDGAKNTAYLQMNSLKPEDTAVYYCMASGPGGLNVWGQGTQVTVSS",
    "Kd / nM": 38.4
  }
]
